- Tested on: RBM45 aa 2-257 as printed, Q8IUH3-3
- Sequence: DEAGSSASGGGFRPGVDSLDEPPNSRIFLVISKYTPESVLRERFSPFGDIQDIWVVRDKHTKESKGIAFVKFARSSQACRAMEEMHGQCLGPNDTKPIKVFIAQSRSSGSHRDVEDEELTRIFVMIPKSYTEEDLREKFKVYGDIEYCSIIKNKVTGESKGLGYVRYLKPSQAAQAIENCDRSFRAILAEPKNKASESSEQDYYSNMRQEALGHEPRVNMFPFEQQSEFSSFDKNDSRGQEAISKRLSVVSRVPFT
- Test name: BLI
- Measurement parameters: BLI: 20 mM Tris-HCl pH 7.4, 80 mM NaCl, temperature not stated; pull-down: 20 mM Tris-HCl pH 7.5, 300 mM KCl, 0.2 mM EDTA, 0.5 mM DTT, 5 ug/ml poly(I.C) …
Metric name: pKd
The meaning of pKd here: minus log10 of the concentration in molar units.

Ask: Fill in: pKd of GUAAAGCUACGGGACGGU [ISE3] is ___
Result: 7.37

----------
- Tested on: RBM45 RRM2-HOA (domain 2-HOA), Q8IUH3-3
- Sequence: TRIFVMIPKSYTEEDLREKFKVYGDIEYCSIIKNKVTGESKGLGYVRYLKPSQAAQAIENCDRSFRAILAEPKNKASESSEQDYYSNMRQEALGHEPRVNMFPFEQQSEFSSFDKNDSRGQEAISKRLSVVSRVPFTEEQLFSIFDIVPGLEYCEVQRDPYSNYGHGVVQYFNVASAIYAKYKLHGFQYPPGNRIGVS
- Test name: BLI
- Measurement parameters: BLI: 20 mM Tris-HCl pH 7.4, 80 mM NaCl, temperature not stated; pull-down: 20 mM Tris-HCl pH 7.5, 300 mM KCl, 0.2 mM EDTA, 0.5 mM DTT, 5 ug/ml poly(I.C) …
Metric name: Kd (nM)
Respond numerically; units are nM and should not be typed.

Ask: Would you mind telling me what Kd value was observed for GUAAAGCUACGGGACGGU [ISE3] ?
Result: 21.3

This collection of values is drawn from paper PMC7064759.
